# assay-system: HLA-A*02:01
# assay-text: IEDB peptide-MHC binding, purified MHC/competitive/fluorescence; filed as Kd, often an IC50 or EC50 that approximates it; bounds were set here for any values at or beyond the usual limits of such assays
# condition-summary: source organism: Yersinia pestis Nepal516
property-name: Kd (nM)
// return numeric value only (unit: nM, not printed)

Lookup: What value of Kd on HLA-A*02:01 does ILHRLAPWI have?
Found: 47.3

###

# assay-system: HLA-A*31:01
# assay-text: IEDB peptide-MHC binding, purified MHC/competitive/fluorescence; filed as Kd, often an IC50 or EC50 that approximates it; bounds were set here for any values at or beyond the usual limits of such assays
# condition-summary: source organism: Mycobacterium tuberculosis H37Ra
property-name: pKd
The scale used: pKd is minus the common logarithm of the concentration in molar units.

Lookup: // lookup pKd for AVYLLDGLR
Found: 7.17
